Reference source for all entries: BindingDB's records for doi:10.1016/j.bmcl.2003.09.094

target: Adenosine receptor A1 (hamster); experiment: Binding affinity for adenosine A1 receptor determined using hamster DDT1 cell membranes with [3H]CCPA as radioligand
pKi: −log10 of the molar value.
Record TRUE whenever pKi is at 7 or higher; record FALSE when lower.

Would you please look over these solved cases?
Compound	Label class
CN(C)C(=O)OC[C@H]1OC(n2cnc3c(NC4CCOC4)ncnc32)[C@H](O)[C@@H]1O (stereo partly drawn)	FALSE
O[C@@H]1[C@@H](COC(=S)NC2CCCCC2)OC(n2cnc3c(NC4CCOC4)ncnc32)[C@@H]1O (stereo partly drawn)	FALSE
CCCNC(=S)OC[C@H]1OC(n2cnc3c(NC4CCOC4)ncnc32)[C@H](O)[C@@H]1O (stereo partly drawn)	TRUE
CNC(=S)OC[C@H]1OC(n2cnc3c(NC4CCOC4)ncnc32)[C@H](O)[C@@H]1O (stereo partly drawn)	TRUE

Query: Exam item: decide whether the reported pKi for CCCNC(=O)OC[C@H]1OC(n2cnc3c(NC4CCOC4)ncnc32)[C@H](O)[C@@H]1O (stereo partly drawn) is at least 7.
Response: FALSE

Query: Hello, I need to know if O=C(NC1CCC1)OC[C@H]1OC(n2cnc3c(NC4CCOC4)ncnc32)[C@H](O)[C@@H]1O (stereo partly drawn) has measured pKi not below 7. Thanks!
Response: FALSE

Query: Is the recorded value of pKi equal to or greater than 7 for this compound? O=C(NCc1ccccc1)OC[C@H]1OC(n2cnc3c(NC4CCOC4)ncnc32)[C@H](O)[C@@H]1O (stereo partly drawn)
Response: FALSE

Query: Please indicate if the recorded pKi for CN(C)C(=S)OC[C@H]1OC(n2cnc3c(NC4CCOC4)ncnc32)[C@H](O)[C@@H]1O (stereo partly drawn) meets or exceeds 7.
Response: FALSE

Query: Is reported pKi greater than or equal to 7 here: O=C(NC1CCCCC1)OC[C@H]1OC(n2cnc3c(NC4CCOC4)ncnc32)[C@H](O)[C@@H]1O (stereo partly drawn)
Response: FALSE

Query: API: above_or_equal(metric=pKi, cutoff=7) for item CCNC(=S)OC[C@H]1OC(n2cnc3c(NC4CCOC4)nc(Cl)nc32)[C@H](O)[C@@H]1O (stereo partly drawn)
Response: TRUE

Query: Say whether O=C(NC1CCCC1)OC[C@H]1OC(n2cnc3c(NC4CCOC4)nc(Cl)nc32)[C@H](O)[C@@H]1O (stereo partly drawn) shows pKi of 7 or more.
Response: FALSE

Query: Say whether CC(C)NC(=S)OC[C@H]1OC(n2cnc3c(NC4CCOC4)ncnc32)[C@H](O)[C@@H]1O (stereo partly drawn) shows pKi of 7 or more.
Response: TRUE
